# ASSAY_SUMMARY: Cytotoxicity against human MT2 cells
# Assay type: cell-based
Below, each of the molecules is paired with its reported CC50 value.

>  <MOLECULE>
Nc1ncnc2c1ncn2[C@@H]1O[C@H](OCP(=O)(O)O)C[C@@H]1F

>  <CC50>
> 1000 µM

$$$$
>  <MOLECULE>
Nc1ncnc2c1ncn2[C@@H]1O[C@H](OCP(=O)(O)O)C=C1F [GS-9148]

>  <CC50>
> 1000 µM

$$$$
>  <MOLECULE>
C[C@H](Cn1cnc2c(N)ncnc21)OCP(=O)(O)O [TENOFOVIR ANHYDROUS]

>  <CC50>
> 1000 µM

$$$$
>  <MOLECULE>
Nc1nc2c(ncn2[C@@H]2O[C@H](OCP(=O)(O)O)C=C2F)c(=O)[nH]1

>  <CC50>
700 µM

$$$$
